Molecular target: T1, native human ApoC3 (human, UniProt P02656 21-99, biotinylated in the captured-antigen assays (Tables 6 and 8); sites not stated)
T1 construct: also called nhuApoC3; native huApoC3
T1 sequence (P02656 21-99): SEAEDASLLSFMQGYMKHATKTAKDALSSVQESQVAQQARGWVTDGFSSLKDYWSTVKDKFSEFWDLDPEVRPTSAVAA
Test: SPR, antigen immobilized on CM5 chip, IgG as analyte, pH 7.4
Each item that follows carries a reported kon.
testReadout: kon (M⁻¹ s⁻¹)

binder | testReadout | displayUnit | observedResult
29G02 IgG (antibody, V domains shown) VH: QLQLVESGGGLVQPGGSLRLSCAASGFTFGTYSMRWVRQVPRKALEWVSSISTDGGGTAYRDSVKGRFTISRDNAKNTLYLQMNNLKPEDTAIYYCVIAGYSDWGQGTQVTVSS VL: DVVLTQTPGSLSVVPGESASISCKATQSLVHIDGKTYLYWLLQKPGQSPQRLIYQVSTRDSGVPDRFTGAGSGAEFTLKISGVKAEDAGVYYCAQDTYSTKTFGQGTKLEIK | kon | M⁻¹ s⁻¹ | 1.32e+06
29A05 IgG (antibody, V domains shown) VH: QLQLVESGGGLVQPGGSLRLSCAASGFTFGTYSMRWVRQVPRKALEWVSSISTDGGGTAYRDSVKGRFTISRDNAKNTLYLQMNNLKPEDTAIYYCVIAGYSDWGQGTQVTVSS VL: DVVLTQTPGSLSVVPGESASISCKASQSLVYSDGKTYLYWLLQKPGQSPQRLIYQVSNRDSGVPDRFTGSGSGTDFTLKISGVKVEDAGVYYCAQGTYWPKTFGQGTKLEIK | kon | M⁻¹ s⁻¹ | 520000
30D10 IgG (antibody, V domains shown) VH: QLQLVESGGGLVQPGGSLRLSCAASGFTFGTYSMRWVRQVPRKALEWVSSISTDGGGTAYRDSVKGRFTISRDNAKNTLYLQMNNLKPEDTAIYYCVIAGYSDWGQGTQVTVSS VL: DVVLTQTPGSLSVVPGESASISCTASQSLRHSDGRTYLYWLRQKPGQSPQRLIKRVSTRDPGVPDRFTGSGSGTDFTLKISGVRAEDAGVYYCAQGTYYPLTFGQGTKVELK | kon | M⁻¹ s⁻¹ | 1.5e+06

Measured values drawn from patent US20210347865A1 for this set.
